Method: NCI Yeast Anticancer Drug Screen. Data for the cln2 rad14 strain (AID 165);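 also: 0% = growth equal to vehicle treated cultures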
Recorded Conditions: S. cerevisiae cln2 rad14 strain, at 50.0 µM, hits give high values
Procedure: Growth inhibition of yeast strains with defined genetic alterations is measured as a screen for potential anti-cancer activity. Selected strains with alterations in DNA damage repair or cell cycle control were exposed to compounds and growth inhibition was measured relative to vehicle treated controls. The strain used in this assay is cln2 rad14
Compounds without any hit were thinned out: in the full panel of roughly 79,000, 15% have a hit.
growth inhibition vs 90%: at or above is true (1), below is false (0).

{"columns": ["Compound", "Assigned Category"],
 "data": [
  ["Oc1ccc(O)c2nc3ccccc3nc12", "false (0)"]
]}

Q: # bool: growth inhibition of O=Cc1cc([N+](=O)[O-])ccc1O >= 90%
Ans: false (0)

Q: Another compound to look at: C=CCOCCC=O
Ans: false (0)

Q: Next compound: Cc1ccc(N=C2SC(=S)N(CCC[N+](C)(C)C)C2=Nc2ccc(C)cc2)cc1
Ans: true (1)

Q: Same lookup for CCCCCCCCCCCC(C)N (configuration not stated) , please.
Ans: true (1)

Q: Try the compound O=C(CCl)NC(=O)N(/N=C/c1ccco1)c1ccccc1
Ans: false (0)

Q: // same read-out, input: Cc1c2ccccc2c(C)n2c1nc1cc(Cl)c(Cl)cc12
Ans: false (0)
